tested on: HCT-116; assay: Antiproliferative activity against human HCT116 cells after 48 hrs by MTS assay; format: functional, cell-based; details: HCT-116, 48 h
Assignment: determine reported IC50 for the given compounds.
Answers are plain numbers, in µM.

> print(dat)
                                item.smiles  recorded.value
1  CC1=C(CSC(=S)NCc2ccccn2)C(=O)c2ccccc2C1=O            5.42

Batch: IC50 for all items listed.
1. CC1=C(CSC(=S)NN2CCN(C)CC2)C(=O)c2ccccc2C1=O
2. CC1=C(CSC(=S)N(C)C2CCCCC2)C(=O)c2ccccc2C1=O
3. CC1=C(CSC(=S)N2CCSC2)C(=O)c2ccccc2C1=O
4. CC1=C(CSC(=S)N2CCSCC2)C(=O)c2ccccc2C1=O
5. CC1=C(CSC(=S)NCc2cccnc2)C(=O)c2ccccc2C1=O
6. CNC(=S)SCC1=C(C)C(=O)c2ccccc2C1=O
7. CC(=O)N1CCN(C(=S)SC2=C(C)C(=O)c3ccccc3C2=O)CC1
8. CC(=O)N1CCN(C(=S)SCC2=C(C)C(=O)c3ccccc3C2=O)CC1

Output:
2
10.6
1.75
0.89
0.18
4.59
4.95
2.08

Input: Dear colleague, I am looking for the recorded IC50 of the following compound: `CC1=C(CSC(=S)NN2CCCCC2)C(=O)c2ccccc2C1=O`
Output: 7.36

###

Give pIC50 for every item shown.
biological target: Pyruvate kinase PKLR (Homo sapiens, UniProt P30613); assay: Inhibition of recombinant human N-terminal His-tagged PKL expressed in Escherichia coli preincubated for 15 mins followed by PEP/NADH addition measured at 30 secs interval for 3 to 6 mins by fluorescent PK-LDH assay
Sequence (P30613 whole entry): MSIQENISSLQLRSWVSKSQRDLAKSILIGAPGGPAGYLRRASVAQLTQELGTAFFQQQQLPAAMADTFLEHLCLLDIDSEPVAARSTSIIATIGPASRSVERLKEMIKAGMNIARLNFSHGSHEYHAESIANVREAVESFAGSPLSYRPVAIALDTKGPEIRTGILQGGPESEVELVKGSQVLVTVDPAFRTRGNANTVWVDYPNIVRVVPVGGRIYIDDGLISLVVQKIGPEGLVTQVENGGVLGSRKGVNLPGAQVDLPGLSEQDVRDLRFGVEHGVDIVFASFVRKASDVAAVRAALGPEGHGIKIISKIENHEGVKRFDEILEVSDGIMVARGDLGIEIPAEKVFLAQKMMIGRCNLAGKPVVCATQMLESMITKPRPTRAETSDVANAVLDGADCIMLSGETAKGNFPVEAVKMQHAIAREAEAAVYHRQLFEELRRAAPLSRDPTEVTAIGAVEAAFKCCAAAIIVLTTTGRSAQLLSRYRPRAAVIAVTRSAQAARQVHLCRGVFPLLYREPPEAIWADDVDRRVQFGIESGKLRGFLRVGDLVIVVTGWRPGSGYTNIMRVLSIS
Numbers only, as −log10 of the molar value.

> print(dat)
                                item.smiles  recorded.value
1  O=C1C=C(CSC(=S)N2CCN(c3ccccc3)CC2)C(=O)c2ccccc21            5.42

# next compound below
Input: Would you mind telling me what pIC50 value was observed for `CC1=C(CSC(=S)N2CCCCC2)C(=O)c2ccccc2C1=O` ?
Output: 5.09

###

Would you mind telling me the reported IC50 of each entry?
system: HCT-116; assay: Antiproliferative activity against human HCT116 cells after 48 hrs by MTS assay; type: functional, cell-based; conditions: HCT-116, 48 h

> print(dat)
                                item.smiles  recorded.value
1  CC(C)=CC[C@@H](O)C1=CC(=O)c2c(O)ccc(O)c2C1=O         1840 nM
2  CC1=C(CSC(=S)N2CCN(C(C)C)CC2)C(=O)c2ccccc2C1=O         1970 nM
3    CC1=C(CSC(=S)N2CCCC2)C(=O)c2ccccc2C1=O         1460 nM
4   CC1=C(CSC(=S)N2CCOCC2)C(=O)c2ccccc2C1=O          800 nM
5  O=C1C=C(CSC(=S)N2CCN(c3ccccc3)CC2)C(=O)c2ccccc21      > 20000 nM
6  CCCCN(CCCC)C(=S)SCC1=C(C)C(=O)c2ccccc2C1=O        10900 nM
7  CC1=C(CSC(=S)N(CCO)CCO)C(=O)c2ccccc2C1=O         2230 nM
8  CC1=C(CSC(=S)NCc2ccccc2)C(=O)c2ccccc2C1=O         1720 nM

Below is a list of compounds. For each, state its recorded IC50.
1. CC1=C(SC(=S)N2CCCCC2)C(=O)c2ccccc2C1=O
2. CC1=C(CSC(=S)NCc2ccncc2)C(=O)c2ccccc2C1=O
3. O=C1C=C(CSC(=S)N2CCCCC2)C(=O)c2ccccc21

Output:
3550 nM
590 nM
2370 nM

###

target: Pyruvate kinase PKM (Homo sapiens, UniProt P14618); assay: Inhibition of recombinant human N-terminal His-tagged PKM1 expressed in Escherichia coli BL21 preincubated for 15 mins followed by PEP/NADH addition measured at 30 secs interval for 3 to 6 mins by fluorescent PK-LDH assay
Sequence (P14618 whole entry): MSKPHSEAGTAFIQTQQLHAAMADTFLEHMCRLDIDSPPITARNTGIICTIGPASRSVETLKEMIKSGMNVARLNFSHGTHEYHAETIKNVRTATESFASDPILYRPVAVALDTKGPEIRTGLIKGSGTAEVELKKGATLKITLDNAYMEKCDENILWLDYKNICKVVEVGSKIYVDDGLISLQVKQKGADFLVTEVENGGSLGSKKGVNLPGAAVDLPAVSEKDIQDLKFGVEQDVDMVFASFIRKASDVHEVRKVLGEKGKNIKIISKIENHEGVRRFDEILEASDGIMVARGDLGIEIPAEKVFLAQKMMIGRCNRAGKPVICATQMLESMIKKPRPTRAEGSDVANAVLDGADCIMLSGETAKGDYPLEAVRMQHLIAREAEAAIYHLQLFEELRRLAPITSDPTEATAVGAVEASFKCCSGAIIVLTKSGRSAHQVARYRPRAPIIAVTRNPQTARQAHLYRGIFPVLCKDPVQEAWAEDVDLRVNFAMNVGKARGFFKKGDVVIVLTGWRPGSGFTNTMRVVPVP
Consider the following compounds; for each one, report its pIC50.
Answers are plain numbers, as −log10 of the molar value.

> print(dat)
                               item.smiles  recorded.value
1  CC1=C(CSC(=S)N2CCCCC2)C(=O)c2ccccc2C1=O            4.78

Input: Report pIC50 for `O=C1C=C(CSC(=S)N2CCN(c3ccccc3)CC2)C(=O)c2ccccc21` tested on Pyruvate kinase PKM (Homo sapiens, UniProt P14618).
Output: 5.20

###

molecular target: UniProt:P14618; test: Inhibition of recombinant human N-terminal His-tagged PKM2 expressed in Escherichia coli BL21 preincubated for 15 mins followed by PEP/NADH addition measured at 30 secs interval for 3 to 6 mins by fluorescent PK-LDH assay
Please respond with reported IC50 for every item in the list.

Some molecules with recorded IC50:
> print(dat)
                                item.smiles  recorded.value
1         CNC(=S)SCC1=C(C)C(=O)c2ccccc2C1=O         > 20 µM
2  C=CCN(CC=C)C(=S)SCC1=C(C)C(=O)c2ccccc2C1=O         14.1 µM

Now, please, on to the next molecule.
Input: State the recorded IC50 for this entry: `CC1=C(CSC(=S)NCc2ccccn2)C(=O)c2ccccc2C1=O`
Output: > 20 µM

###

Exercise: state measured IC50 for each of the compounds provided.
system: HCT-116; assay: Antiproliferative activity against human HCT116 cells after 48 hrs by MTS assay; type: functional, cell-based; conditions: HCT-116, 48 h
Answers are plain numbers, in nM.

Completed entries (count: 3):
> print(dat)
                                   compound  recorded.endpoint  readout.unit  recorded.value
1  CC1=C(CSC(=S)N2CC(C)OC(C)C2)C(=O)c2ccccc2C1=O (centres undefined)               IC50            nM            1100
2   CCCN(CCC)C(=S)SC1=C(C)C(=O)c2ccccc2C1=O               IC50            nM            4300
3  C=CCN(CC=C)C(=S)SCC1=C(C)C(=O)c2ccccc2C1=O               IC50            nM            2170

Let's switch to this compound now.
Input: Kindly state the measured IC50 obtained for `CC1=C(SC(=S)N2CCOCC2)C(=O)c2ccccc2C1=O` with HCT-116.
Output: 2280
